- assay_method_text: in vivo
- measurement_conditions: Sprague-Dawley, rat, Cl range
readout_name: clearance

For the molecule CC(C)[C@]12O[C@H]1[C@@H]1O[C@]13[C@]1(O[C@H]1C[C@H]1C4=C(CC[C@@]13C)C(=O)OC4)[C@@H]2O [Triptolide] , what clearance is on record?
15.5 to 102 mL/min

====

- assay_method_text: in vivo
- measurement_conditions: female, Sprague Dawley, rat, iv, 0.15 mg/kg/day
readout_name: Tmax
Report field: quantity (unit follows the number).

// query Tmax value for entry CC(C)[C@]12O[C@H]1[C@@H]1O[C@]13[C@]1(O[C@H]1C[C@H]1C4=C(CC[C@@]13C)C(=O)OC4)[C@@H]2O [Triptolide]
15 min

====

- Tested on: AML patient cells (bulk, CD34+, CD34+CD38−, CD34+CD38+)
- assay_method_text: Viable cell count in AML patients' samples, flow cytometry
- Format: cell-based
- measurement_conditions: Homo sapiens, 24 h, read-out: EC50 -Cell Count, 24 h, Alone, CD34+
readout_name: pEC50
As a rule, pEC50 stands for the negative log10 of the concentration, concentration in M.

Please give the measured pEC50 for this compound: CC(C)[C@]12O[C@H]1[C@@H]1O[C@]13[C@]1(O[C@H]1C[C@H]1C4=C(CC[C@@]13C)C(=O)OC4)[C@@H]2O [Triptolide]
8.67

====

- assay_method_text: 7-day repeat dose i.v. rat toxicology comparison study
- measurement_conditions: both, Sprague-Dawley, rat, in vivo, iv
readout_name: NOAEL at 7 days

Suppose we examine the compound CC(C)[C@]12O[C@H]1[C@@H]1O[C@]13[C@]1(O[C@H]1C[C@H]1C4=C(CC[C@@]13C)C(=O)OC4)[C@@H]2O [Triptolide] ; what NOAEL at 7 days value has been reported?
0.05 to 0.15 mg/kg

====

- System: AML patient cells (bulk, CD34+, CD34+CD38−, CD34+CD38+)
- assay_method_text: Apoptosis
- Assay type: cell-based
- measurement_conditions: Homo sapiens, 24 h, read-out: EC50 - Annexin V +, 24 h, + MS-5, CD34+
readout_name: pEC50
Scale: negative log10 of molar concentration, which is what pEC50 denotes.

Value lookup for pEC50; key = CC(C)[C@]12O[C@H]1[C@@H]1O[C@]13[C@]1(O[C@H]1C[C@H]1C4=C(CC[C@@]13C)C(=O)OC4)[C@@H]2O [Triptolide]
8.63

====

- assay_method_text: in vivo
- measurement_conditions: male, Sprague Dawley, rat, iv, 0.3 mg/kg/day, Cmax
readout_name: Cmax (ng/mL)
Report the value in ng/mL with no unit label.

Bench note: what Cmax did CC(C)[C@]12O[C@H]1[C@@H]1O[C@]13[C@]1(O[C@H]1C[C@H]1C4=C(CC[C@@]13C)C(=O)OC4)[C@@H]2O [Triptolide] show?
130

====

- assay_method_text: in vivo
- measurement_conditions: female, Sprague-Dawley, rat, iv, 0.3 mg/kg, Cmax range
readout_name: Cmax

Give its Cmax value. Item: CC(C)[C@]12O[C@H]1[C@@H]1O[C@]13[C@]1(O[C@H]1C[C@H]1C4=C(CC[C@@]13C)C(=O)OC4)[C@@H]2O [Triptolide]
11 to 189 ng/mL

====

- System: AML patient cells (bulk, CD34+, CD34+CD38−, CD34+CD38+)
- assay_method_text: Apoptosis
- Type: cell-based
- measurement_conditions: Homo sapiens, 24 h, read-out: EC50 - Annexin V +, 24 h, Alone, CD34+38−
readout_name: EC50 (nM)
Give the number; nM is assumed, so skip it.

Which value of EC50 has been reported for CC(C)[C@]12O[C@H]1[C@@H]1O[C@]13[C@]1(O[C@H]1C[C@H]1C4=C(CC[C@@]13C)C(=O)OC4)[C@@H]2O [Triptolide] in the records?
2.14

====

- assay_method_text: in vivo
- measurement_conditions: female, Sprague Dawley, rat, iv, 0.05 mg/kg/day
readout_name: Tmax (min)
Output spec: scalar in min, unitless text.

Recorded Tmax for CC(C)[C@]12O[C@H]1[C@@H]1O[C@]13[C@]1(O[C@H]1C[C@H]1C4=C(CC[C@@]13C)C(=O)OC4)[C@@H]2O [Triptolide] , please?
15

====

- assay_method_text: in vivo
- measurement_conditions: female, Sprague Dawley, rat, iv, 0.05 mg/kg/day, Cmax
readout_name: Cmax (ng/mL)
// note: answer is a bare numeric in ng/mL

Consider the molecule CC(C)[C@]12O[C@H]1[C@@H]1O[C@]13[C@]1(O[C@H]1C[C@H]1C4=C(CC[C@@]13C)C(=O)OC4)[C@@H]2O [Triptolide] and give its measured Cmax.
15.4
